B1: LINE1-full (parent)
chain: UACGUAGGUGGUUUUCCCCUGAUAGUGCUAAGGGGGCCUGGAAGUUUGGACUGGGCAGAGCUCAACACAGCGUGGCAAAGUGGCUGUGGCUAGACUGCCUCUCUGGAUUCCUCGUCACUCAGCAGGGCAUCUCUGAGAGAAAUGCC

# Variants of: B1
# protocol.description: self-cleavage, relative activity (ratio to wild type); higher = more cleavage; in vitro, sequencing; the parent is a self-cleaving ribozyme
A collection of variants and their measured self-cleavage
Output: the number by itself.

These recorded examples may help you get a feel for the data.
mutation.annotation | reported.value
U91C A117C | 1.24
A69G U119A | 0.65
U12C A136U | 1.43

Now consider the entry below.
Quote self-cleavage reported for U47G A142G please.
1.33
